Taken from patent US20110166176A1.

Readings of pEC50 for the listed molecules
Target of assay: human GPR119 (Homo sapiens)
Method summary: Cyclic AMP assay (HTRF) in stable Flp-In-CHO-hGPR119 cell line
Run parameters: Flp-In-CHO-hGPR119 cells, intracellular cAMP, 30 minutes at 37° C., 1 mM IBMX, read-out: CHO-GPR119-HTRF (3158) EC50
Experimental: Flp-In-CHO cells (Invitrogen, Cat. # R758-07) are maintained in Ham's F12 medium supplemented with 10% fetal bovine serum, 1% antibiotic mixture and 2 mM L-glutamine. […] To test the activity of compounds of the invention, Flp-In-CHO-hGPR119 cells are harvested and resuspended in DMEM plus 3% lipid-depleted fetal bovine serum. […] The plates are incubated at room temperature for 1 hour and read on a HTRF reader according to the manufacturer's instruction. […]
A value of pEC50 is the negative decimal logarithm of a concentration given in moles per litre.

CC(C)OC(=O)OCc1cccc(O[C@H]2CCN(c3ccc(S(C)(=O)=O)cc3F)C2)c1 [Example 18]    6.10

-- ask Report pEC50 for CC(C)OC(=O)N1CCc2cc(O[C@H]3CCN(c4ccc(S(C)(=O)=O)cc4)C3)ccc2C1 [Example 1] please.
-- reply 7.07

-- ask Report pEC50 for CCCN(Cc1ccccc1)Cc1cccc(O[C@H]2CCN(c3ccc(S(C)(=O)=O)cc3F)C2)c1 [Example 13] please.
-- reply 6.14

---

Target of assay: human GPR119 (Homo sapiens, UniProt Q8TDV5)
Sequence (Q8TDV5 whole entry): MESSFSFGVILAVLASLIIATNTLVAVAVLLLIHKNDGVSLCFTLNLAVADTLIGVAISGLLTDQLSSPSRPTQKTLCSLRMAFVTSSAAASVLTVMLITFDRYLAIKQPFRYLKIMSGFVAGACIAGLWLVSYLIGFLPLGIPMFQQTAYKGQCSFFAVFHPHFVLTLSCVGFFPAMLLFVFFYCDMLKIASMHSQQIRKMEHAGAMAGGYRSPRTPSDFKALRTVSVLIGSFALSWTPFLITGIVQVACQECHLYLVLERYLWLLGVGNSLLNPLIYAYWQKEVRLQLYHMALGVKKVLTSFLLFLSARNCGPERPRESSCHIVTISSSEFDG
Method summary: Cyclic AMP assay (HTRF) in stable Flp-In-CHO-hGPR119 cell line
Run parameters: Flp-In-CHO-hGPR119 cells, intracellular cAMP, 30 minutes at 37° C., 1 mM IBMX, read-out: CHO-GPR119-HTRF (3158) EC50
Procedure: Flp-In-CHO cells (Invitrogen, Cat. # R758-07) are maintained in Ham's F12 medium supplemented with 10% fetal bovine serum, 1% antibiotic mixture and 2 mM L-glutamine. […] To test the activity of compounds of the invention, Flp-In-CHO-hGPR119 cells are harvested and resuspended in DMEM plus 3% lipid-depleted fetal bovine serum. […] The plates are incubated at room temperature for 1 hour and read on a HTRF reader according to the manufacturer's instruction. […]
Assay metric: pEC50
A value of pEC50 is the negative decimal logarithm of a concentration given in moles per litre.

-- ask Provide the documented pEC50 with human GPR119 (Homo sapiens, UniProt Q8TDV5) as the system for CC(C)OC(=O)OCCc1cccc(O[C@@H]2CCN(c3ccc(S(C)(=O)=O)cc3F)C2)c1
-- reply 6.29

-- ask Provide the documented pEC50 with human GPR119 (Homo sapiens, UniProt Q8TDV5) as the system for CN(Cc1ccccc1)Cc1cccc(O[C@H]2CCN(c3ccc(S(C)(=O)=O)cc3F)C2)c1
-- reply 6.59

---

Target of assay: human GPR119 (Homo sapiens)
Method summary: Cyclic AMP assay (HTRF) in stable Flp-In-CHO-hGPR119 cell line
Run parameters: Flp-In-CHO-hGPR119 cells, intracellular cAMP, 30 minutes at 37° C., 1 mM IBMX, read-out: CHO-GPR119-HTRF (3158) EC50
Procedure: Flp-In-CHO cells (Invitrogen, Cat. # R758-07) are maintained in Ham's F12 medium supplemented with 10% fetal bovine serum, 1% antibiotic mixture and 2 mM L-glutamine. […] To test the activity of compounds of the invention, Flp-In-CHO-hGPR119 cells are harvested and resuspended in DMEM plus 3% lipid-depleted fetal bovine serum. […] The plates are incubated at room temperature for 1 hour and read on a HTRF reader according to the manufacturer's instruction. […]
Readings of EC50 for the listed compounds

Answered cases to consult:
CNCc1ccc(O[C@H]2CCN(c3ccc(S(C)(=O)=O)cc3)C2)cc1    353 nM
CCCN(Cc1cccc(O[C@H]2CCN(c3ccc(S(C)(=O)=O)cc3)C2)c1)C(=O)OC(C)C    397 nM
CCN(Cc1ccccc1)Cc1cccc(O[C@H]2CCN(c3ccc(S(C)(=O)=O)cc3F)C2)c1    356 nM
CC(C)OC(=O)OCc1ccc(O[C@@H]2CCN(c3ccc(S(C)(=O)=O)cc3F)C2)cc1    1020 nM

Here is the next item to consider.
-- ask Provide the documented EC50 with human GPR119 (Homo sapiens) as the system for CCN(Cc1ccccc1)Cc1cccc(O[C@H]2CCN(c3ccc(S(C)(=O)=O)cc3)C2)c1
-- reply 423 nM
